# study-system: immobilized isoD7-Aβ42 (Homo sapiens)
# Construct: isoD7-Aβ42 (DAEFRH[isoD][…]); purchased Biopeptide Co., LLC (San Diego, CA, USA); host or cells: chemical synthesis
# assay-procedure: SPR analysis of HAEE binding to immobilized isoD7-Aβ42
# measurement-parameters: immobilized isoD7-Aβ42, 100 µM ZnCl2, pH 6.8, 25°C
pKd: −log10 of the molar value. Peptide text beside a SMILES is read from it.
measured-attribute: pKd

# compound, observed-result
records = [
    ("CC(=O)N[C@@H](Cc1c[nH]cn1)C(=O)N[C@@H](C)C(=O)N[C@@H](CCC(=O)O)C(=O)N[C@@H](CCC(=O)O)C(N)=O [HAEE, Ac-HAEE-NH2] (Ac-HAEE-NH2)", 4.98),
]

---

# study-system: immobilized Aβ42 (Homo sapiens, UniProt P05067)
# Sequence (P05067 672-713): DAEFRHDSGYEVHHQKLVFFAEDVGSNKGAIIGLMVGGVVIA
pKd: −log10 of the molar value. Peptide text beside a SMILES is read from it.

# compound, pKd
records = [
    ("CC(=O)N[C@@H](Cc1c[nH]cn1)C(=O)N[C@@H](C)C(=O)N[C@@H](CCC(=O)O)C(=O)N[C@@H](CCC(=O)O)C(N)=O [HAEE, Ac-HAEE-NH2] (Ac-HAEE-NH2)", 5.39),
]
